- Test system: SF-268
- assay-comment: NCI tumour cell line growth inhibition, 48 h
Calls of active or inactive are those of the source. Cut-off read from the data, not from the text of the source: active = GI50 up to about 1.1 µM and inactive = higher.

{"compound": "CN(C)CCSS(=O)(=O)O", "GI50": "> 100 µM (inactive)"}
{"compound": "O=C(CSc1nc2ccc(I)cc2c(=O)n1Cc1ccccc1)Nc1ccccc1", "GI50": "8.77 µM (inactive)"}
{"compound": "CCOC(=O)C1(C(=O)OCC)OC(C)=NC1(C(=O)OC)C(=O)OC", "GI50": "> 100 µM (inactive)"}
{"compound": "CCCCCCCCCC1CC(=O)Oc2cccc(O)c21 (stereo unspecified)", "GI50": "30.3 µM (inactive)"}
{"compound": "O=C(NC1(C(=O)O)CC1c1ccccc1)c1ccccc1 (stereo unspecified)", "GI50": "> 100 µM (inactive)"}
{"compound": "CCOC(=O)C1=C(C)N(C2OC(COC(C)=O)C(OC(C)=O)C(OC(C)=O)C2OC(C)=O)C(=O)NC1c1ccccc1 (stereo unspecified)", "GI50": "> 100 µM (inactive)"}

====

- Tested on: RPMI-8226
- assay-comment: NCI tumour cell line growth inhibition, 48 h
Calls of active or inactive are those of the source. Cut-off read from the data, not from the text of the source: active = GI50 up to about 1.1 µM and inactive = higher.
experimental-readout: GI50

{"molecule": "Cc1nn(-c2ccccc2)c(S)c1C(=O)c1ccccc1", "observed": "19.1 µM (inactive)"}
{"molecule": "Cc1ccc2c(c1C)C(=O)C1(C2)Cc2ccc3c(c2C1=O)CCC3 (stereo not given)", "observed": "> 100 µM (inactive)"}
{"molecule": "CCOc1ccc(/C=C2\\N=C(c3ccc([N+](=O)[O-])cc3)OC2=O)cc1", "observed": "> 100 µM (inactive)"}
{"molecule": "CCOC(=O)N1CCC2(CC1)CC(=O)N(Nc1ccccc1)C2=O", "observed": "> 100 µM (inactive)"}
{"molecule": "O=C1CCC(=O)N1Cc1ccccc1/N=[N+](\\[O-])c1ccccc1CN1C(=O)CCC1=O", "observed": "> 100 µM (inactive)"}
{"molecule": "O=C(CSc1nc2ccc(I)cc2c(=O)n1Cc1ccccc1)Nc1ccccc1", "observed": "88.3 µM (inactive)"}
{"molecule": "COc1ncnc2c(Cl)c(C(O)c3ccccc3)c(Cl)cc12 (stereo not given)", "observed": "18.7 µM (inactive)"}
{"molecule": "COc1cc2cc[n+]3c(C)c4cc(OC)c(OC)cc4c([O-])c3c2cc1OC", "observed": "> 100 µM (inactive)"}
{"molecule": "COc1cc(-c2ccccc2N)c2cccnc2c1OC", "observed": "3.4 µM (inactive)"}
{"molecule": "N/N=C(/C(=O)Nc1cccc(Cl)c1)C(C(=O)c1ccc(O)cc1O)C1OC(=O)c2ccccc21 (stereo not given)", "observed": "90.6 µM (inactive)"}

====

Form field: GI50 (one value per entry).
- Test system: MOLT-4
- assay-comment: NCI tumour cell line growth inhibition, 48 h
Activity calls are given as the source filed them. No stated cut-off is given here; in the data, active = GI50 up to about 1.1 µM and inactive = higher.
experimental-readout: GI50

{"compound": "Cc1oc2nc(N(C)C)n3nnnc3c2c1C", "observed": "> 100 µM (inactive)"}
{"compound": "Brc1ccc2c(-c3csc(-c4c[nH]c5ccc(Br)cc45)n3)c[nH]c2c1", "observed": "2.84 µM (inactive)"}
{"compound": "CCOC(=O)N1CCC2(CC1)CC(=O)N(Nc1ccccc1)C2=O", "observed": "> 100 µM (inactive)"}
{"compound": "CCCCCCCCCCCCCC(=O)OC(/C=C/C(C)C)C(O)C(O)C(OC)C(=O)NC1CCCCN(C)C1=O (stereo not given)", "observed": "2.7 µM (inactive)"}
{"compound": "CSc1nc(C)cc(=O)n1C1OC(COC(C)=O)C(OC(C)=O)C(OC(C)=O)C1OC(C)=O (stereo not given)", "observed": "> 100 µM (inactive)"}
{"compound": "O=[N+]([O-])c1ccc(-c2nc(/C=N/N3CCCCC3)cs2)o1", "observed": "26.5 µM (inactive)"}
{"compound": "COc1ccc2c(=O)c([Se]c3coc4cc(OC)ccc4c3=O)coc2c1", "observed": "51.8 µM (inactive)"}
{"compound": "COc1ccc(CCN(C)C2CCC(C#N)(c3ccc(OC)c(OC)c3)CC2)cc1OC (stereo not given)", "observed": "> 100 µM (inactive)"}
{"compound": "O=C1CCC2(O)c3ccccc3C2Cc2ccccc21 (stereo not given)", "observed": "> 100 µM (inactive)"}
{"compound": "NC(=O)c1c2c(n3ccccc13)C(=O)c1ccccc1C2=O", "observed": "> 100 µM (inactive)"}

====

- Test system: HOP-62
- assay-comment: NCI tumour cell line growth inhibition, 48 h
Calls of active or inactive are those of the source. Rule as the data show it: active = GI50 up to about 1.1 µM and inactive = higher.
Outcome codes: active, inactive

{"compound": "Nc1ncnc2c1nnn2C1CCC(CP(=O)(O)O)C1 (centres undefined)", "cat": "inactive"}
{"compound": "COc1ccc2c(N=[N+]=[N-])c(-c3ccccc3)c(=O)oc2c1", "cat": "inactive"}
{"compound": "CCOP(=O)(OCC)C(Cc1ccccc1)N=C(c1ccccc1)c1ccccc1 (centres undefined)", "cat": "inactive"}
{"compound": "CNC(=O)CCC(NC(C)=O)C(=O)NC(Cc1ccc(NC(=O)CCCCC(C)=O)cc1)C(=O)NC(CCC(=O)NC)C(=O)NC (centres undefined)", "cat": "inactive"}
{"compound": "O=C(CN1CCOCC1)c1ccc2c(c1)oc(=O)n2CCN1CCCCC1", "cat": "inactive"}
{"compound": "Cc1cc(C)c(C[C@H]2COC(=O)[C@]2(O)Cc2c(C)cc(C)cc2C)c(C)c1", "cat": "inactive"}
{"compound": "CCn1c2ccccc2c2ccc(C3C4C(=O)N(c5cccc6ccccc56)C(=O)C4ON3C(C(N)=O)c3ccccc3)cc21 (centres undefined)", "cat": "inactive"}
{"compound": "O=S(=O)(/N=C(\\NO)Nc1ccc(Cl)cc1)c1cccc2nsnc12", "cat": "inactive"}
{"compound": "O=C1c2cccc3cccc(c23)C(=O)N1CCCNCCCCNCCCN1C(=O)c2cccc3cccc(c23)C1=O", "cat": "active"}

====

Form field: GI50 (one value per entry).
- System: SF-295
- assay-comment: NCI tumour cell line growth inhibition, 48 h
Active and inactive are the calls of the source. Rule as the data show it: active = GI50 up to about 1.1 µM and inactive = higher. Where a SMILES comes first, the peptide text is derived from it. [ ]: non-standard residue; d: D form. The star is where a group is joined. Iva = CC[C](C)(N)C(=O)O; Boc = CC(C)(C)OC(=O)*; X54 = C1CCC(=NO*)C1
experimental-readout: GI50

{"compound": "C=C1CC(COc2ccc3ccc(=O)oc3c2)(c2ccccc2)OC1=O (stereo not drawn)", "observed": "6.78 µM (inactive)"}
{"compound": "Cc1ccc2c(c1)C(=O)/C(=C\\c1ccc(Cl)cc1)CCS2(=O)=O", "observed": "4.21 µM (inactive)"}
{"compound": "CC1(C)CC2(C)ON=C(c3ccccc3)N2c2ccccc2N1 (stereo not drawn)", "observed": "28.7 µM (inactive)"}
{"compound": "NCCOCCOCC(=O)O", "observed": "> 100 µM (inactive)"}
{"compound": "Cc1ccc(/N=C2/C(c3ccccc3)=C(SC3=C(c4ccccc4)/C(=N/c4ccc(C)cc4)c4ccccc43)c3ccccc32)cc1", "observed": "12.5 µM (inactive)"}
{"compound": "O=c1oc2ccccc2c(-c2ccc(O)cc2)c1Oc1ccc(Cl)cc1", "observed": "17 µM (inactive)"}
{"compound": "CC[C@]12C=CCN3CC[C@@]4(c5cc(Br)c(OC)cc5N(C)[C@H]4[C@@](O)(C(=O)N[C@@H](Cc4ccc(O)cc4)C(=O)OC)[C@@H]1O)[C@@H]32", "observed": "19.3 µM (inactive)"}
{"compound": "CCC(C)(NC(=O)C(C)NC(=O)OC(C)(C)C)C(=O)NC(C)C(=O)NC(C)(CC)C(=O)ON=C1CCCC1 (stereo not drawn) (Boc-A[Iva]A[Iva]-X54; configuration not given here)", "observed": "> 100 µM (inactive)"}

====

- System: EKVX
- assay-comment: NCI tumour cell line growth inhibition, 48 h
Calls of active or inactive are those of the source. No stated cut-off is given here; in the data, active = GI50 up to about 1.1 µM and inactive = higher.
Form field: GI50 (one value per entry).
experimental-readout: GI50

{"molecule": "Cc1ccc([N+](=O)[O-])cc1S(=O)(=O)Nc1ccc(C2=NOC(c3ccccc3O)C2)cc1 (stereo unspecified)", "experimental-readout": "GI50", "observed": "17.1 µM (inactive)"}
{"molecule": "COc1cc2c(cc1O)CC13CCC(=O)N1CCc1cc(OC)c(O)c-2c13 (stereo unspecified)", "experimental-readout": "GI50", "observed": "> 68.1 µM (inactive)"}
{"molecule": "CNC(=S)/C(C#N)=C(\\N)N1CCN(C)CC1", "experimental-readout": "GI50", "observed": "> 100 µM (inactive)"}
{"molecule": "CCC1=NC(N/N=C/c2ccco2)=N/C1=C\\c1ccccc1O", "experimental-readout": "GI50", "observed": "26.7 µM (inactive)"}
{"molecule": "O=N/N=c1\\o[n-][n+](CCc2ccccc2)c1Cc1/c(=N/N=O)o[n-][n+]1CCc1ccccc1", "experimental-readout": "GI50", "observed": "50 µM (inactive)"}
{"molecule": "CCN1C(=O)C(=C/C=C/c2ccc([N+](=O)[O-])cc2)C(=O)N(CC)C1=S", "experimental-readout": "GI50", "observed": "21 µM (inactive)"}
{"molecule": "COc1ccccc1Cn1[nH]c(=O)c2cc([N+](=O)[O-])ccc21", "experimental-readout": "GI50", "observed": "> 100 µM (inactive)"}
{"molecule": "O=C1C(Cl)=C(Cl)C(=O)C2=C1C1c3ccccc3C2c2ccccc21", "experimental-readout": "GI50", "observed": "> 100 µM (inactive)"}
{"molecule": "CC12Oc3ccc4ccccc4c3CC1Cc1c(ccc3ccccc13)O2 (stereo unspecified)", "experimental-readout": "GI50", "observed": "> 100 µM (inactive)"}
{"molecule": "COC(=O)CCCCCOS(=O)(=O)c1ccc(C)cc1", "experimental-readout": "GI50", "observed": "> 100 µM (inactive)"}
{"molecule": "CCOC(=O)/C(=C/c1ccccc1)N(CC)CC", "experimental-readout": "GI50", "observed": "> 100 µM (inactive)"}
